Quick reference: collision cross section in nitrogen of the listed items.
assay: collision cross section in nitrogen (drift tube, single-field); higher = larger gas-phase ion size; settings: ion type: [M+Na]; ion source: ESI; ion mode: Positive;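 note: chemical standards at 10 µM analysed by drift tube IMS-QTOF MS in about 3.95 torr nitrogen, mean of duplicate injections differing ≤1%, mass error below 10 ppm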
Where a name gives a salt, the structure may show the parent alone.

compound	collision cross section in nitrogen (Å²)
CCCCOC(=O)c1ccccc1C(=O)OCc1ccccc1 [Benzyl butyl phthalate]	178.3
O=c1n(CCO)c(=O)n(CCO)c(=O)n1CCO [Tris(2-hydroxyethyl) isocyanurate]	159.3
O=c1cc(-c2ccccc2)oc2c1ccc1ccccc12 [alpha-Naphthoflavone]	185.7
O=C(COc1ccc(Cl)cc1)N1CCN(Cc2ccc3c(c2)OCO3)CC1 [Fipexide hydrochloride]	202.1
CCC1COC(Cn2cncn2)(c2ccc(Cl)cc2Cl)O1 (stereo not drawn) [Etaconazole]	189.3
COCc1nnc(-c2ccc[n+]([O-])c2)n1-c1c(Cl)c(Cl)cc2[nH]c(=O)c(=O)[nH]c12	193.2
CNC(=O)ON=C(CSC)C(C)(C)C	160.6
CCOc1ccc(NC(N)=O)cc1 [Dulcin]	149.7
CC(=O)Nc1ccc(CC(=O)O)cc1 [Actarit]	143.5
CCCCCC[C@@H](O)C/C=C\CCCCCCCC(=O)O [(9Z,12R)-12-Hydroxyoctadec-9-enoic acid]	189.7
CCCCCCCCCCCCCCCCCC(=O)OCC(O)CO (stereo not drawn) [Glycerol 1-monostearate]	201.2
COc1ccc(S(=O)(=O)N2C(=O)[C@@](c3ccccc3OC)(N3C[C@H](O)C[C@H]3C(=O)N(C)C)c3cc(Cl)ccc32)c(OC)c1 [Nelivaptan]	233.3
CCOP(=O)(NC(C)C)Oc1ccc(S(C)(=O)=O)c(C)c1 (stereo not drawn) [Fenamiphos sulfone]	181.5
Cc1ccc(-c2ccccc2)cc1 [4-Phenyltoluene]	135.4
Cc1ccccc1CO[C@@H]1C[C@@]2(C(C)C)CC[C@]1(C)O2 [Cinmethylin]	169.7
CCOC(=O)O[C@H](C)OC(=O)c1ccc2c(c1)cc(C(=O)NC1CCN(C(C)C)CC1)n2Cc1cc(-c2ccc(Cl)s2)on1 [AVE6324]	276.4
CCCCCCCCCCCCN(CCO)CCO [Lauryldiethanolamine]	180.3
CC(C)COC(=O)COc1ccc(Cl)cc1Cl [2,4-D-isobutyl]	172.2

###

assay: collision cross section in nitrogen (drift tube, single-field); higher = larger gas-phase ion size; conditions: ion type: [M+H]; ion source: ESI; ion mode: Positive
Structures can show the parent of a compound that is named as a salt.
observable: collision cross section in nitrogen (Å²)

compound	observable	numericReadout
CC#Cc1cc(C)nc(Nc2ccccc2)n1	collision cross section in nitrogen	153.1
CCN(CC)C(=O)c1cccc(C)c1	collision cross section in nitrogen	143.6
CC[C@H]1OC(=O)[C@H](C)[C@@H](O[C@H]2C[C@@](C)(OC)[C@@H](O)[C@H](C)O2)[C@H](C)[C@@H](O[C@@H]2O[C@H](C)C[C@H](N(C)C)[C@H]2O)[C@](C)(O)C[C@@H](C)C(=O)[C@H](C)[C@@H](O)[C@]1(C)O	collision cross section in nitrogen	257.1
CN(C)CCCN1c2ccccc2CCc2ccccc21 [Imipramine hydrochloride]	collision cross section in nitrogen	166
Nc1ccc(N=Nc2ccccc2)c(N)n1 [Phenazopyridine hydrochloride]	collision cross section in nitrogen	150.3
CO[C@H]1/C=C/O[C@@]2(C)Oc3c(C)c(O)c4c(O)c(c(/C=N/N5CCN(C)CC5)c(O)c4c3C2=O)NC(=O)/C(C)=C\C=C\[C@H](C)[C@H](O)[C@@H](C)[C@@H](O)[C@@H](C)[C@H](OC(C)=O)[C@@H]1C	collision cross section in nitrogen	282.3

###

experiment: collision cross section in nitrogen (drift tube, single-field); higher = larger gas-phase ion size; details: ion type: [M+H]; ion source: ESI; ion mode: Positive
Counter-ions that a name gives are not always drawn.

compound	collision cross section in nitrogen
CC(=O)N1CCN(c2ccc(OC[C@H]3CO[C@](Cn4ccnc4)(c4ccc(Cl)cc4Cl)O3)cc2)CC1 [Ketoconazole]	216.8 Å²
N=c1ccn2c(n1)O[C@H]1[C@H](O)[C@@H](CO)O[C@H]12 [Cyclocytidine]	143.5 Å²
O=C(Nc1ccccc1-c1ccc(Cl)cc1)c1cccnc1Cl [Boscalid]	175.5 Å²
CC1=NN(c2ccc(C(=O)O)cc2)C(=O)C1 [4-(3-Methyl-5-oxo-4,5-dihydro-1H-pyrazol-1-yl)benzoic acid]	151.6 Å²
CCc1nc(N)nc(N)c1-c1ccc(Cl)cc1 [Pyrimethamine]	159.4 Å²
CC(C)c1ccc2c(c1)CC[C@H]1[C@](C)(CN)CCC[C@]21C [Dehydroabietylamine]	188.3 Å²
CN1[C@@H]2C[C@@H](OC(=O)[C@H](CO)c3ccccc3)C[C@H]1[C@@H]1O[C@@H]12 [Scopolamine hydrochloride]	171.7 Å²
CN(C)c1ccc(C(=O)c2ccc(N(C)C)cc2)cc1 [Bis(4-(dimethylamino)phenyl)methanone]	166.5 Å²
CN(C)c1ccc(/N=N/c2ccccc2C(=O)O)cc1 [Methyl red]	163 Å²
COc1ccc(NC(C)=O)cc1N [3'-Amino-4'-methoxyacetanilide]	137.2 Å²
CC(C)Oc1ccc(S(=O)(=O)c2ccc(O)cc2)cc1 [4-((4-Isopropoxyphenyl)sulfonyl)phenol]	171.8 Å²
CNc1ccc(NCCO)c2c1C(=O)c1ccccc1C2=O [C.I. Disperse Blue 3]	167.5 Å²
Cc1nnc(-c2ccccc2)c(=O)n1N [Metamitron]	145.2 Å²
CC(C)C1(C)N=C(c2ncccc2C(=O)O)NC1=O (centres undefined) [Imazapyr]	156.7 Å²
CCCC(Cn1cncn1)c1ccc(Cl)cc1Cl (centres undefined) [Penconazole]	166.1 Å²
CCOC(=O)N1CCC(=C2c3ccc(Cl)cc3CCc3cccnc32)CC1 [Loratadine]	187.4 Å²
CN(C)c1ccc(Cc2ccc(N(C)C)cc2)cc1 [4,4'-Methylenebis(N,N-dimethylaniline)]	174.8 Å²
Cc1cnc2c(C(=O)O)c(Cl)ccc2c1 [Quinmerac]	140.7 Å²
COc1cc(OC)nc(NC(=O)NS(=O)(=O)c2ncccc2OCC(F)(F)F)n1 [Trifloxysulfuron-sodium]	192 Å²
Nc1cc(Cl)c(N)c(Cl)c1 [2,6-Dichloro-1,4-benzenediamine]	135.5 Å²
CCc1ccc(CCOc2ccc(CC3SC(=O)NC3=O)cc2)nc1 (centres undefined) [Pioglitazone hydrochloride]	178.9 Å²
O=c1[nH]c2ccc(S(=O)CCN3CCC(Cc4ccc(F)cc4)CC3)cc2o1 (centres undefined) [Besonprodil]	203.4 Å²
CSc1ccc(C(=O)C(C)(C)N2CCOCC2)cc1 [2-Methyl-4'-(methylthio)-2-morpholinopropiophenone]	166.7 Å²
Cc1cc(OC(=O)N(C)C)nn1C(=O)N(C)C [Dimetilan]	153.1 Å²
Cc1cc(C)c(C=C2C(=O)Nc3ccccc32)[nH]1 [SU-5416]	154.2 Å²
Nc1ccc(Sc2ccc(N)cc2)cc1 [4,4'-Thiodianiline]	164.4 Å²
N=C(N)c1ccc(OCCCCCOc2ccc(C(=N)N)cc2)cc1 [Pentamidine isethionate]	177.4 Å²
Clc1ccccc1CN1CCc2sccc2C1 [Ticlopidine hydrochloride]	156.8 Å²
CC(C)OC(=O)C(C)(C)Oc1ccc(C(=O)c2ccc(Cl)cc2)cc1 [Fenofibrate]	192.8 Å²
C[C@]12CCC(=O)C=C1CC[C@@H]1[C@@H]2CC[C@@]2(C)[C@H]1CC[C@]2(C)O [17-Methyltestosterone]	177.6 Å²
CC1(C)CC(N)CC(C)(CN)C1 (centres undefined) [Isophorone diamine]	142.3 Å²
N=C(NCCCCCCNC(=N)NC(=N)Nc1ccc(Cl)cc1)NC(=N)Nc1ccc(Cl)cc1 [Chlorhexidine dihydrochloride]	222.9 Å²
O=c1cc(-c2ccccc2)oc2cc(O)cc(O)c12 [Chrysin]	154.8 Å²
Cc1c(N(C)C)c(=O)n(-c2ccccc2)n1C [4-Dimethylaminoantipyrine]	152.5 Å²

###

experiment: collision cross section in nitrogen (drift tube, single-field); higher = larger gas-phase ion size; conditions: ion type: [M+H]; ion source: APCI; ion mode: Positive
observable: collision cross section in nitrogen (Å²)

compound	numericReadout
Cc1cnc(C2=NC(=O)C(C)(C(C)C)N2)c(C(=O)O)c1 (stereo not given)	162.2
Cc1ccn2nc(S(=O)(=O)Nc3c(F)cccc3F)nc2n1	167.4
COC(=O)c1cccnc1 [Methyl nicotinate]	126.6
OC(c1ccc(F)cc1)(c1cncnc1)c1ccccc1Cl (stereo not given)	171.6
CCOC(=O)C(C)Oc1ccc(Oc2nc3ccc(Cl)cc3o2)cc1 (stereo not given)	190.2

###

test: collision cross section in nitrogen (drift tube, single-field); higher = larger gas-phase ion size; details: ion type: [M+H]; ion source: APCI; ion mode: Positive
Structures can show the parent of a compound that is named as a salt.
observable: collision cross section in nitrogen (Å²)

molecule	observable	numericReadout
CCN1CCC2(CC1)COc1cc3c(cc12)N(C(=O)c1ccc(-c2ccc(-c4nnc(C)o4)cc2C)cc1)CC3	collision cross section in nitrogen	229.6
COc1ccc(C(=CC(=O)N2CCOCC2)c2ccc(Cl)cc2)cc1OC	collision cross section in nitrogen	200.7
CC(=O)CC(c1ccccc1)c1c(O)c2ccccc2oc1=O (centres undefined)	collision cross section in nitrogen	167.4
CCCOC(=O)NCCCN(C)C [Propamocarb hydrochloride]	collision cross section in nitrogen	142.7
O=C1C=CC(=O)N1c1ccc(Cc2ccc(N3C(=O)C=CC3=O)cc2)cc1 [Bismaleimide]	collision cross section in nitrogen	197.5
CCCCC1(COC(=O)CCC(=O)O)C(=O)N(c2ccccc2)N(c2ccccc2)C1=O	collision cross section in nitrogen	201.3
Cn1c(=O)c2[nH]cnc2n(C)c1=O	collision cross section in nitrogen	136.3
Fc1ccc(Oc2ccnc3cc(Cl)cc(Cl)c23)cc1	collision cross section in nitrogen	165.8
CCCCCCCCCCCC(=O)N(CC)CC [N,N-Diethyldodecanamide]	collision cross section in nitrogen	179.7
